Test system: methanogenesis in rumen liquor
experiment_summary: In vitro test for methane production (modified Hohenheim Forage value Test)
condition_info: 2% DM; 8 h, 39° C.; average of two experiments; vs control
// values below are reported effect on methanogenesis (%)
parameter: effect on methanogenesis (%)

1) O=C(O)CCO[N+](=O)[O-] | −100
2) CC(C)(CO[N+](=O)[O-])C(=O)O | −100
3) CCOC(=O)CCCCO[N+](=O)[O-] | −100
4) CCOC(=O)CC(C)O[N+](=O)[O-] (centres unmarked) | −100
5) O=C(O)CCCO[N+](=O)[O-] | 2
6) CCOC(=O)CCO[N+](=O)[O-] [drawing 19] | −100
7) COC(=O)CCO[N+](=O)[O-] | −100
8) O=[N+]([O-])[O-].[Na+] [Na NO3, reference compound] | −23
9) CCOC(=O)CCCO[N+](=O)[O-] | −100
10) CCOC(=O)C(C)O[N+](=O)[O-] (centres unmarked) | −100
11) O=C(O)CCCCO[N+](=O)[O-] | −100

All values here come from patent US9365489B2.
